Data provenance: patent US11214803B2

system: Yap1 mRNA; experiment: Antisense inhibition of human Yap1 in A-431 cells by cEt gapmers, single dose (Example 2, RTS4814); type: cell-based; conditions: Table 32; Yap1 mRNA, percent of untreated control; 3-10-3 cEt gapmers targeting SEQ ID NO.: 1, and 2
Strand notation (5' to 3'): a small letter for the sugar, then the base; units joined by * are phosphorothioate-linked, units joined directly phosphodiester-linked; [ ] holds rarer units or linkages, { } end groups; capitals alone tell only the bases. k = constrained ethyl (cEt); [5mC] = 5-methylcytosine; d = 2'-deoxy (DNA)
The class of a record is decided solely by its measured YAP1 (% UTC); consult low range: < 40 % UTC; mid range: ≥ 40 % UTC and < 90 % UTC; high range: ≥ 90 % UTC

Would you please look over these solved cases?
>>> print(df.to_string())
                                  substance  class_name
0  1074994 (antisense kA*kA*kA*d[5mC]*dT*dA*dA*dA*dT*dG*dG*dA*d[5mC]*k[5mC]*kG*kG) [compound 1074994]  high range
1  1074770 (kA*kT*k[5mC]*dT*dT*dA*dT*d[5mC]*d[5mC]*d[5mC]*dA*dA*dT*kG*k[5mC]*kT; antisense) [compound 1074770]   low range
2  1074482 (kT*kA*kA*dT*dA*dT*dG*dG*dT*d[5mC]*dA*dT*dT*kT*kG*k[5mC]; antisense) [compound 1074482]   low range
3  1075282 (antisense kG*kA*kA*dA*dA*dA*dT*dG*dA*dG*d[5mC]*d[5mC]*d[5mC]*kG*kG*kT) [compound 1075282]  high range

Now for a further substance.
Query block: For 1074930 (antisense k[5mC]*kT*kA*dT*dA*d[5mC]*dA*dA*d[5mC]*dA*dG*dG*d[5mC]*k[5mC]*kT*kG) [compound 1074930] , which YAP1 (% UTC) bin applies?
Result block: mid range
